# Tested on: HeLa Kyoto;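 also: HeLa Kyoto cells synchronized by double thymidine or nocodazole block, proteins quantified by TMT10plex mass spectrometry, three independent biological replicates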
# Protocol Notes: melting temperature (median over replicates), in situ; higher = more thermally stable
# Settings: cell cycle stage: mitosis
Record form. Attribute: melting temperature. Fill in for each entry.
Reply with just the number (in °C).

Query string: # get_value(readout='melting temperature', item= MGGLFWRSALRGLRCGPRAPGPSLLVRHGSGGPSWTRERTLVAVKPDGVQRRLVGDVIQRFERRGFTLVGMKMLQAPESVLAEHYQDLRRKPFYPALIRYMSSGPVVAMVWEGYNVVRASRAMIGHTDSAEAAPGTIRGDFSVHISRNVIHASDSVEGAQREIQLWFQSSELVSWADGGQHSSIHPA [NME4] )
Result string: 54.5

Query string: # get_value(readout='melting temperature', item= MGLTVSALFSRIFGKKQMRILMVGLDAAGKTTILYKLKLGEIVTTIPTIGFNVETVEYKNICFTVWDVGGQDKIRPLWRHYFQNTQGLIFVVDSNDRERVQESADELQKMLQEDELRDAVLLVFANKQDMPNAMPVSELTDKLGLQHLRSRTWYVQATCATQGTGLYDGLDWLSHELSKR [ARF5] )
Result string: 55.9

Query string: # get_value(readout='melting temperature', item= MALLLCFVLLCGVVDFARSLSITTPEEMIEKAKGETAYLPCKFTLSPEDQGPLDIEWLISPADNQKVDQVIILYSGDKIYDDYYPDLKGRVHFTSNDLKSGDASINVTNLQLSDIGTYQCKVKKAPGVANKKIHLVVLVKPSGARCYVDGSEEIGSDFKIKCEPKEGSLPLQYEWQKLSDSQKMPTSWLAEMTSSVISVKNASSEYSGTYSCTVRNRVGSDQCLLRLNVVPPSNKAGLIAGAIIGTLLALALIGLIIFCCRKKRREEKYEKEVHHDIREDVPPPKSRTSTARSYIGSNHSSLGSMSPSNMEGYSKTQYNQVPSEDFERTPQSPTLPPAKVAAPNLSRMGAIPVMIPAQSKDGSIV [CXADR] )
Result string: 57.6
